# System: BMPR1B
# condition.notes: concentration: 1 μM, replicates: in singlicate; n = 1;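 note: KINOMEscan kinase panel screen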
property.measured: %Inh (%)
Numbers only, in %.

molecule: Cl.c1ccc(-c2n[nH]cc2-c2ccnc(-c3ccc(CN4CCOCC4)cc3)c2)nc1 [GW776245]
property.measured: %Inh
readout.units: %
recorded.value: 52
--
molecule: Nc1nc(-c2nccs2)c(-c2ccnc3ccccc23)s1 [GW693542]
property.measured: %Inh
readout.units: %
recorded.value: 10
--
molecule: Cc1cccc(-c2nc(C)cc(Nc3ccncc3)n2)n1 [GSK257997]
property.measured: %Inh
readout.units: %
recorded.value: 0
--
molecule: O=C1NC(=O)C(N2CCc3ccccc32)=C1c1ccccc1Cl [SB-373598]
property.measured: %Inh
readout.units: %
recorded.value: 8
--
molecule: Fc1cc(Cl)ccc1Nc1ccnc2cc(-c3ccc(CN4CCCCC4)o3)ccc12 [GW560116]
property.measured: %Inh
readout.units: %
recorded.value: 0

Provide the reported %Inh of each entry below, same order.
1. COc1ccccc1-c1ccc2c(NC(=O)C3CC3)n[nH]c2n1 [SB-711239]
2. COc1ccc(Nc2nccc(-c3cccc(NC(=O)c4cc5cc(F)ccc5[nH]4)c3)n2)cc1 [GSK1229782]
3. O=C(Nc1n[nH]c2cc(-c3cccc(F)c3F)ccc12)C1CC1 [SB-733894]
4. Cc1csc(-c2nc(Nc3ccncc3)c3ccccc3n2)n1 [GW869640]
5. Cc1cccc(-c2nc(Nc3cccc(C(N)=O)c3)c3ccccc3n2)n1 [GW876019]

Response:
1. 0
2. 0
3. 31
4. 42
5. 0

For each of the molecules below, state %Inh.
1. CN(C)CCN(C)C(=O)c1cc(-c2ccncc2)c(-c2ccc(Cl)c(O)c2)o1.Cl.Cl [SB-710397]
2. CC1=C(C(=O)Nc2cc3cn[nH]c3cc2F)C(c2ccc(C(F)(F)F)cc2)CC(=O)N1 (stereo not drawn) [GSK429286]
3. O=C(Nc1ccc2c(c1)OCO2)NC1CCN(c2ccnc(Nc3ccc(F)cc3)n2)C1 (stereo not drawn) [GSK1379724]
4. Cc1cc(NCC(c2ccccc2)c2ccccc2)nc(NCc2ccc(C(F)(F)F)cc2)n1 [GW497681]
5. Fc1cc(Cl)ccc1Nc1ccnc2cc(I)ccc12 [GW551191]

Response:
1. 0
2. 0
3. 0
4. 0
5. 0

Please supply %Inh for each of the following items, keeping them in order.
1. O=C(Nc1ccccc1)Nc1cccc(Oc2ccc3nccn3n2)c1
2. Clc1cc(Cl)cc(Nc2ccnc(Nc3cc(Cl)cc(Cl)c3)n2)c1 [GSK175726]
3. Cc1ccc(C(=O)Nc2ccc(Nc3ccnc4cc(-c5ccccn5)ccc34)cc2O)cc1.Cl [GW440146]

Response:
[0, 0, 0]

Hey, can you go through the list below and give me %Inh for every item?
1. Cc1nnc(-c2ccc3occ(-c4ccc(S(C)=O)cc4)c3c2)[nH]1 (stereo not drawn)
2. COc1ccccc1CNC(=O)c1cc(C(=O)c2ccccc2C)c[nH]1 [GSK364507]
3. CS(=O)(=O)c1ccc(-c2c(-c3ncn[nH]3)sc(N3CCOCC3)c2C#N)cc1

Response:
37
0
4

###

# Tested on: TLK1
# condition.notes: concentration: 1 μM, replicates: in singlicate; n = 1
I'd appreciate it if you could supply %Inh values for the items below.
One number for each entry, in %.

molecule: COc1ccc(CNC(=O)NC2CCN(c3ccnc(Nc4cc(OC)c(OC)c(OC)c4)n3)C2)cc1 (centres unmarked)
readout.units: %
%Inh: 9
--
molecule: CS(=O)(=O)c1ccc(-c2c(-c3ncn[nH]3)sc(N3CCOCC3)c2C#N)cc1
readout.units: %
%Inh: 5
--
molecule: COc1cc2nccc(Nc3ccc(NC(=O)c4ccc(C)cc4)c(O)c3)c2cc1OC.Cl
readout.units: %
%Inh: 0
--
molecule: O=C(Nc1ccc2c(c1)OCO2)NC1CCN(c2ccnc(Nc3ccc(F)cc3)n2)C1 (centres unmarked)
readout.units: %
%Inh: 0
--
molecule: COc1ccc(Nc2nccc(NCCNC(=O)Nc3ccccc3F)n2)cc1
readout.units: %
%Inh: 0
--
molecule: Cc1cccc(-c2nc(Nc3ccncc3)c3ccccc3n2)n1
readout.units: %
%Inh: 0
--
molecule: Cc1cccc(-c2nc(Nc3cccc(C(N)=O)c3)c3ccccc3n2)n1
readout.units: %
%Inh: 0

Attention now turns to another entry.
Request: What does the record list as %Inh for Cc1ccc(-c2cc(-c3c[nH]nc3-c3ccccn3)ccn2)cc1 ?
Response: 24
